test system: Mycobacterium tuberculosis Erdman (autoluminescent); experiment: Einf, fitted maximum growth inhibition of three-drug combination (fraction); higher = stronger maximal inhibition; conditions: in vitro model: dormancy (butyrate + nitrate, low O2); time point: terminal (~4-5 doublings, model-specific)

{"columns": ["Compound", "Target", "Einf"],
 "data": [
  ["CC(C)/N=c1\\cc2n(-c3ccc(Cl)cc3)c3ccccc3nc-2cc1Nc1ccc(Cl)cc1 [clofazimine] + CC[C@@H](CO)NCCN[C@@H](CC)CO [ethambutol] + CO[C@H]1/C=C/O[C@@]2(C)Oc3c(C)c(O)c4c(O)c(c(/C=N/N5CCN(C6CCCC6)CC5)c(O)c4c3C2=O)NC(=O)/C(C)=C\\C=C\\[C@H](C)[C@H](O)[C@@H](C)[C@@H](O)[C@@H](C)[C@H](OC(C)=O)[C@@H]1C [rifapentine]", "Mycobacterium tuberculosis Erdman (autoluminescent)", 0.99],
  ["CC(C)/N=c1\\cc2n(-c3ccc(Cl)cc3)c3ccccc3nc-2cc1Nc1ccc(Cl)cc1 [clofazimine] + CC[C@@H](CO)NCCN[C@@H](CC)CO [ethambutol] + CC(=O)NC[C@H]1CN(c2ccc(N3CCOCC3)c(F)c2)C(=O)O1 [linezolid]", "Mycobacterium tuberculosis Erdman (autoluminescent)", 0.963],
  ["COc1nc2ccc(Br)cc2cc1[C@@H](c1ccccc1)[C@@](O)(CCN(C)C)c1cccc2ccccc12 [bedaquiline] + NNC(=O)c1ccncc1 [isoniazid] + CC(=O)NC[C@H]1CN(c2ccc(N3CCOCC3)c(F)c2)C(=O)O1 [linezolid]", "Mycobacterium tuberculosis Erdman (autoluminescent)", 0.989],
  ["CC[C@@H](CO)NCCN[C@@H](CC)CO [ethambutol] + CC(=O)NC[C@H]1CN(c2ccc(N3CCOCC3)c(F)c2)C(=O)O1 [linezolid] + NC(=O)c1cnccn1 [pyrazinamide]", "Mycobacterium tuberculosis Erdman (autoluminescent)", 0.964],
  ["CC(C)/N=c1\\cc2n(-c3ccc(Cl)cc3)c3ccccc3nc-2cc1Nc1ccc(Cl)cc1 [clofazimine] + CC[C@@H](CO)NCCN[C@@H](CC)CO [ethambutol] + CO[C@H]1/C=C/O[C@@]2(C)Oc3c(C)c(O)c4c(O)c(c(/C=N/N5CCN(C)CC5)c(O)c4c3C2=O)NC(=O)/C(C)=C\\C=C\\[C@H](C)[C@H](O)[C@@H](C)[C@@H](O)[C@@H](C)[C@H](OC(C)=O)[C@@H]1C [rifampicin]", "Mycobacterium tuberculosis Erdman (autoluminescent)", 0.991],
  ["COc1nc2ccc(Br)cc2cc1[C@@H](c1ccccc1)[C@@](O)(CCN(C)C)c1cccc2ccccc12 [bedaquiline] + O=[N+]([O-])c1cn2c(n1)OC[C@@H](OCc1ccc(OC(F)(F)F)cc1)C2 [pretomanid] + CO[C@H]1/C=C/O[C@@]2(C)Oc3c(C)c(O)c4c(O)c(c(/C=N/N5CCN(C)CC5)c(O)c4c3C2=O)NC(=O)/C(C)=C\\C=C\\[C@H](C)[C@H](O)[C@@H](C)[C@@H](O)[C@@H](C)[C@H](OC(C)=O)[C@@H]1C [rifampicin]", "Mycobacterium tuberculosis Erdman (autoluminescent)", 0.982],
  ["CC(=O)NC[C@H]1CN(c2ccc(N3CCOCC3)c(F)c2)C(=O)O1 [linezolid] + O=[N+]([O-])c1cn2c(n1)OC[C@@H](OCc1ccc(OC(F)(F)F)cc1)C2 [pretomanid] + CO[C@H]1/C=C/O[C@@]2(C)Oc3c(C)c(O)c4c(O)c(c(/C=N/N5CCN(C6CCCC6)CC5)c(O)c4c3C2=O)NC(=O)/C(C)=C\\C=C\\[C@H](C)[C@H](O)[C@@H](C)[C@@H](O)[C@@H](C)[C@H](OC(C)=O)[C@@H]1C [rifapentine]", "Mycobacterium tuberculosis Erdman (autoluminescent)", 0.979],
  ["CC(=O)NC[C@H]1CN(c2ccc(N3CCOCC3)c(F)c2)C(=O)O1 [linezolid] + COc1c(N2C[C@@H]3CCCN[C@@H]3C2)c(F)cc2c(=O)c(C(=O)O)cn(C3CC3)c12 [moxifloxacin] + O=[N+]([O-])c1cn2c(n1)OC[C@@H](OCc1ccc(OC(F)(F)F)cc1)C2 [pretomanid]", "Mycobacterium tuberculosis Erdman (autoluminescent)", 0.979],
  ["COc1nc2ccc(Br)cc2cc1[C@@H](c1ccccc1)[C@@](O)(CCN(C)C)c1cccc2ccccc12 [bedaquiline] + CC(=O)NC[C@H]1CN(c2ccc(N3CCOCC3)c(F)c2)C(=O)O1 [linezolid] + CO[C@H]1/C=C/O[C@@]2(C)Oc3c(C)c(O)c4c(O)c(c(/C=N/N5CCN(C6CCCC6)CC5)c(O)c4c3C2=O)NC(=O)/C(C)=C\\C=C\\[C@H](C)[C@H](O)[C@@H](C)[C@@H](O)[C@@H](C)[C@H](OC(C)=O)[C@@H]1C [rifapentine]", "Mycobacterium tuberculosis Erdman (autoluminescent)", 0.985],
  ["COc1nc2ccc(Br)cc2cc1[C@@H](c1ccccc1)[C@@](O)(CCN(C)C)c1cccc2ccccc12 [bedaquiline] + CC(=O)NC[C@H]1CN(c2ccc(N3CCOCC3)c(F)c2)C(=O)O1 [linezolid] + NC(=O)c1cnccn1 [pyrazinamide]", "Mycobacterium tuberculosis Erdman (autoluminescent)", 0.989],
  ["COc1nc2ccc(Br)cc2cc1[C@@H](c1ccccc1)[C@@](O)(CCN(C)C)c1cccc2ccccc12 [bedaquiline] + CC[C@@H](CO)NCCN[C@@H](CC)CO [ethambutol] + NNC(=O)c1ccncc1 [isoniazid]", "Mycobacterium tuberculosis Erdman (autoluminescent)", 0.987],
  ["CC(=O)NC[C@H]1CN(c2ccc(N3CCOCC3)c(F)c2)C(=O)O1 [linezolid] + COc1c(N2C[C@@H]3CCCN[C@@H]3C2)c(F)cc2c(=O)c(C(=O)O)cn(C3CC3)c12 [moxifloxacin] + CO[C@H]1/C=C/O[C@@]2(C)Oc3c(C)c(O)c4c(O)c(c(/C=N/N5CCN(C)CC5)c(O)c4c3C2=O)NC(=O)/C(C)=C\\C=C\\[C@H](C)[C@H](O)[C@@H](C)[C@@H](O)[C@@H](C)[C@H](OC(C)=O)[C@@H]1C [rifampicin]", "Mycobacterium tuberculosis Erdman (autoluminescent)", 0.971]
]}

From: the supplement of paper PMC8617591
